System: healthy adult Sprague–Dawley male rats
PROTOCOL_DETAILS: In vivo toxicity study, 6 weeks oral daily
Design: species or system rat
PROTOCOL_CONDITIONS: plasma, oral daily 6 weeks, dose equimolar to celecoxib 20 mg/kg; mean ± SEM, n = 6

MOLECULE: COc1ccc(/C=N/Nc2ncnc3c2cnn3-c2ccccc2)cc1OC [Compound D2]
TARGET_DESC: healthy adult Sprague–Dawley male rats
UNITS_LABEL: mg/dL
Triglycerides: 61.83

MOLECULE: COc1ccc(/C=N/Nc2ncnc3c2cnn3-c2ccccc2)cc1 [Compound D1]
TARGET_DESC: healthy adult Sprague–Dawley male rats
UNITS_LABEL: mg/dL
Triglycerides: 67

MOLECULE: Cc1ccc(-c2cc(C(F)(F)F)nn2-c2ccc(S(N)(=O)=O)cc2)cc1 [Celecoxib, celecoxib, reference compound]
TARGET_DESC: healthy adult Sprague–Dawley male rats
UNITS_LABEL: mg/dL
Triglycerides: 53

MOLECULE: COc1cc(/C=N/Nc2ncnc3c2cnn3-c2ccccc2)cc(OC)c1OC [Compound D3]
TARGET_DESC: healthy adult Sprague–Dawley male rats
UNITS_LABEL: mg/dL
Triglycerides: 64

* * *

Reported values of Albumin for individual entries
Test system: healthy adult Sprague–Dawley male rats
PROTOCOL_DETAILS: In vivo toxicity study, 6 weeks oral daily
Design: species or system rat
PROTOCOL_CONDITIONS: plasma, oral daily 6 weeks, dose equimolar to celecoxib 20 mg/kg; mean ± SEM, n = 6
RECORDED_METRIC: Albumin

COMPOUND: COc1cc(/C=N/Nc2ncnc3c2cnn3-c2ccccc2)cc(OC)c1OC
RESULT: 3.86 ± 0.12 g/dL

COMPOUND: Cc1ccc(-c2cc(C(F)(F)F)nn2-c2ccc(S(N)(=O)=O)cc2)cc1 [Celecoxib, celecoxib, reference compound]
RESULT: 3.73 ± 0.06 g/dL

COMPOUND: COc1ccc(/C=N/Nc2ncnc3c2cnn3-c2ccccc2)cc1OC [Compound D2]
RESULT: 3.78 ± 0.12 g/dL

COMPOUND: COc1ccc(/C=N/Nc2ncnc3c2cnn3-c2ccccc2)cc1 [Compound D1]
RESULT: 3.9 ± 0.12 g/dL

* * *

Tested on: healthy adult Sprague–Dawley male rats
PROTOCOL_DETAILS: In vivo toxicity study, 6 weeks oral daily
Set-up: species or system rat
PROTOCOL_CONDITIONS: plasma, oral daily 6 weeks, dose equimolar to celecoxib 20 mg/kg; mean ± SEM, n = 6
Reported values of ALP for individual entries

MOLECULE: Cc1ccc(-c2cc(C(F)(F)F)nn2-c2ccc(S(N)(=O)=O)cc2)cc1 [Celecoxib, celecoxib, reference compound]
ALP / U/L: 138.66
--
MOLECULE: COc1ccc(/C=N/Nc2ncnc3c2cnn3-c2ccccc2)cc1 [Compound D1]
ALP / U/L: 159.5
--
MOLECULE: COc1ccc(/C=N/Nc2ncnc3c2cnn3-c2ccccc2)cc1OC [Compound D2]
ALP / U/L: 154.16
--
MOLECULE: COc1cc(/C=N/Nc2ncnc3c2cnn3-c2ccccc2)cc(OC)c1OC
ALP / U/L: 123.16

* * *

Reported values of IC50 at 24 h for individual entries
PROTOCOL_DETAILS: Cytotoxicity MTT assay
Assay type: cell-based
PROTOCOL_CONDITIONS: human, HepG2 cells (hepatocellular carcinoma cell line), HepG2, MTT, mean ± SEM, n = 3
RECORDED_METRIC: IC50 at 24 h (µM)

MOLECULE: COc1ccc(/C=N/Nc2ncnc3c2cnn3-c2ccccc2)cc1OC [Compound D2]
READOUT_NUMBER: 345
//
MOLECULE: COc1ccc(/C=N/Nc2ncnc3c2cnn3-c2ccccc2)cc1 [Compound D1]
READOUT_NUMBER: 371
//
MOLECULE: COc1cc(/C=N/Nc2ncnc3c2cnn3-c2ccccc2)cc(OC)c1OC
READOUT_NUMBER: 356
//
MOLECULE: Cc1ccc(-c2cc(C(F)(F)F)nn2-c2ccc(S(N)(=O)=O)cc2)cc1 [Celecoxib, celecoxib, reference compound]
READOUT_NUMBER: 145

// data source = paper PMC10045301
